In this section we review reported pKd values for a set of binders.
Molecular target: T1, Human Nectin-4 (human, UniProt Q96NY8 32-349, limits assumed)
T1 construct: Protein immobilised on the SPR chip; also called target protein
T1 sequence: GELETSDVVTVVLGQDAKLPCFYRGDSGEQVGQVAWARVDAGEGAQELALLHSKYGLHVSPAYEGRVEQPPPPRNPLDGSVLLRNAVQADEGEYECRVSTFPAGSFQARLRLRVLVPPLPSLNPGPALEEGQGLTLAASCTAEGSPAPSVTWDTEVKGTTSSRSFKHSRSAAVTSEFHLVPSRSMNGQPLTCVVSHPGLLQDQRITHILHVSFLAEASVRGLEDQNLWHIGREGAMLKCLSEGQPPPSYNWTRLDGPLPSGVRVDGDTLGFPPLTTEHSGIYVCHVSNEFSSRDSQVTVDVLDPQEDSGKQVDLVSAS
Assay: Table 2B (DELFIA or SPR)
Bridges are numbered along the chain shown (N, C = ends). Primed or numbered codes have the meaning given here. Where no end group is shown, it is not given here. The star is where a group is joined. Biotin = O=C1N[C@H]2[C@H](CS[C@H]2CCCCC(=O)*)N1; PEG4″ = 4(ethylene glycol)
In plain terms, pKd is the concentration in mol/L turned into minus its base-10 logarithm.

>  <Binder>
{Biotin-PEG4″}-CEYDEEFFTALARLRGGDICYYIQAYFQYLPGLCIEEILDNLGCS-OH (designed binder, disulfide 1-34, 20-44) [C165]

>  <pKd>
8.39

$$$$
>  <Binder>
{Biotin-PEG4″}-CEYDEEFFTALKRLRGGDICEYIQASFQYLPGLCIEEILDNLGCS-OH (designed binder, disulfide 1-34, 20-44) [C178]

>  <pKd>
8.85

$$$$
>  <Binder>
Ac-CEYDEEFFTALKRLRGGDICYYIQAKFQYLPKLCIEEILDNLGCS (designed binder, disulfide 1-34, 20-44) [C116]

>  <pKd>
9.11

$$$$

Now consider the entry below.
Asked: Given Ac-CEYDEEFFLGLKRLRGGDICYYIKKKFKKVPKLCIEEILKKLGC-OH (designed binder, disulfide 1-34, 20-44) [C63] , state its recorded pKd.
Given back: 8.71
